# Assayed Target: Beta-3 adrenergic receptor (Homo sapiens)
# Sequence (P13945 whole entry): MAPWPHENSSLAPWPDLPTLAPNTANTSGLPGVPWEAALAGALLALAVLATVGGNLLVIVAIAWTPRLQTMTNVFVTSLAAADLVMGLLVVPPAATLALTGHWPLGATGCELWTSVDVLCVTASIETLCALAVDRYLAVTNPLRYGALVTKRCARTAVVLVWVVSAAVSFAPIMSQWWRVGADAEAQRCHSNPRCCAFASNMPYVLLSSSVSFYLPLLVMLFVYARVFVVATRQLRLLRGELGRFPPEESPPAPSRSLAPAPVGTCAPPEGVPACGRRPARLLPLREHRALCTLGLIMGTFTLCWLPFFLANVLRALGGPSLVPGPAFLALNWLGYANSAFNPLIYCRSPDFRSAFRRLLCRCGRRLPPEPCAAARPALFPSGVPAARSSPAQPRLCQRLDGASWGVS
# Test: Agonist activity (EC50) was assessed by measuring cAMP levels in CHO cells expressing cloned human Beta-3 adrenergic receptor
# Type: functional, cell-based
Measurement Kind: EC50 (nM)
Give the value in nM but do not write nM after it.

EC50 in this record for "CN(C)S(=O)(=O)Nc1ccc(CCNC[C@H](O)c2cccc(Cl)c2)cc1" : 299

Just so you know, measured EC50 for "CC1CCN(S(=O)(=O)Nc2ccc(CCNC[C@H](O)c3cccnc3)cc2)CC1" came out at 36

Item: "CC1CCN(S(=O)(=O)Nc2ccc(OCCNC[C@H](O)c3cccnc3)cc2)CC1" | EC50: 1360

For "CC(C)(Cc1ccc(NS(=O)(=O)N2CCC(c3ccccc3)CC2)cc1)NC[C@H](O)c1cccnc1" the molecule record lists EC50 as 47

Lab book: EC50 of "CN(C)S(=O)(=O)N(C)c1ccc(CCNC[C@H](O)c2cccc(Cl)c2)cc1" noted as 9900

# molecule "O=S(=O)(Nc1ccc(CCNC[C@H](O)c2cccnc2)cc1)NC1CCCCC1" ; its EC50 = 1460

Record "C[C@@H]1CN(S(=O)(=O)Nc2ccc(CC(C)(C)NC[C@H](O)c3cccnc3)cc2)C[C@H](C)O1" , field EC50: 8

Query "CN1CCN(S(=O)(=O)Nc2ccc(CC(C)(C)NC[C@H](O)c3cccnc3)cc2)CC1" yields EC50 of 41

In plain terms, "CN(C)S(=O)(=O)Nc1ccc(CCNC[C@H](O)c2cccnc2)cc1" has a documented EC50 of 265

Value of measured EC50 for the entry "CN(C)S(=O)(=O)Nc1ccc(OCCNC[C@H](O)c2cccnc2)cc1" : 943

Entry under test: "O=S(=O)(Nc1ccc(CCNC[C@H](O)c2cccnc2)cc1)N1CCCCC1" . Its EC50 was 99

get_value(item= "C[C@@H]1C[C@H](C)CN(S(=O)(=O)Nc2ccc(CCNC[C@H](O)c3cccnc3)cc2)C1" , readout=EC50) returns 24

Measured EC50, "CN(C1CCCCC1)S(=O)(=O)Nc1ccc(CCNC[C@H](O)c2cccnc2)cc1" : 180

// field: EC50; key: "O=S(=O)(Nc1ccc(CCNC[C@H](O)c2cccc(Cl)c2)cc1)N1CCCCC1" ; value = 617

For reference, reported EC50 for "O=S(=O)(Nc1ccc(CCNC[C@H](O)c2cccc(Cl)c2)cc1)NC1CCCCC1" stands at 464

EC50 in this record for "CC(C)(Cc1ccc(NS(=O)(=O)NC2CCCCC2)cc1)NC[C@H](O)c1cccnc1" : 25

Data point: "CC(C)(Cc1ccc(NS(=O)(=O)N2CCN(Cc3ccccc3)CC2)cc1)NC[C@H](O)c1cccnc1" ; EC50 = 18

Lookup result for "CN(C1CCCCC1)S(=O)(=O)Nc1ccc(CCNC[C@H](O)c2cccc(Cl)c2)cc1" ; measured EC50: 537

So for "CC(C)(Cc1ccc(NS(=O)(=O)Nc2ccccc2)cc1)NC[C@H](O)c1cccnc1" , the logged EC50 turned out to be 7
